// provenance: patent US5292887A

Biological target: α2-adrenoceptor (Rattus norvegicus)
Construct: In anaesthetized rat, a standard dose of detomidine was administered intravenously; from tissue; host or cells: whole anaesthetized rat (pupil response, in vivo)
Sequence (P22909 1-465): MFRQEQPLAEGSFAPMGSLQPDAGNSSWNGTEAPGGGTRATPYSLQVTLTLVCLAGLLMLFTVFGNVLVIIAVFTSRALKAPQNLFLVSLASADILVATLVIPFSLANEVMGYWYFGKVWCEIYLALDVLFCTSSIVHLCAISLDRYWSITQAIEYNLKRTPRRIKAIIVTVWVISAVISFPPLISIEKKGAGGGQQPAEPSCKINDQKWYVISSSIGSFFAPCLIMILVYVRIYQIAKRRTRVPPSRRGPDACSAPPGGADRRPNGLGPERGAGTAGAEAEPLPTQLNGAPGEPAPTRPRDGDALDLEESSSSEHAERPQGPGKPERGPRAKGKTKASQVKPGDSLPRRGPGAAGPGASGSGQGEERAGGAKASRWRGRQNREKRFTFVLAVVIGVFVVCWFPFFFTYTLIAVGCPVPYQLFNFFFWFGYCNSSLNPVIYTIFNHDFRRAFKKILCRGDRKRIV
Assay: Reversal of detomidine-induced mydriasis in anaesthetized rat (α2-adrenoceptor antagonism)
Assay type: in vivo
Settings: iv, dose producing 50 per cent reversal of detomidine-induced mydriasis
Result Type: ED50

{"Compound": "CCn1cnc(C2(CO)Cc3ccccc3C2)c1 [compound 10]", "ED50": "0.3 mg/kg"}

IN: System α2-adrenoceptor (Rattus norvegicus). Read-out ED50. Item CCn1cnc(C2(CC)Cc3ccccc3C2)c1 [compound 2] . Report value.
OUT: 0.2 mg/kg

IN: Fill: ED50 (α2-adrenoceptor (Rattus norvegicus)) for this compound CCCC1(c2cn(C)cn2)Cc2ccccc2C1 [compound 9]
OUT: 0.3 mg/kg

IN: Name the value of ED50 reported for CCCC1(c2cn(CC)cn2)Cc2ccccc2C1 [compound 8] when tested on α2-adrenoceptor (Rattus norvegicus).
OUT: 0.3 mg/kg

IN: Report value only: ED50, α2-adrenoceptor (Rattus norvegicus), CCC1(c2cn(C)cn2)Cc2ccccc2C1 [compound 1]
OUT: 0.3 mg/kg

IN: Provide ED50, recorded with α2-adrenoceptor (Rattus norvegicus), of CCC1(c2cn(Cc3ccccc3)cn2)Cc2ccccc2C1 [compound 4]
OUT: 2 mg/kg

---

biological target: α2-adrenoceptor (Rattus norvegicus); construct: In anaesthetized rat, a standard dose of detomidine was administered intravenously; from tissue; host or cells: whole anaesthetized rat (pupil response, in vivo); assay: Reversal of detomidine-induced mydriasis in anaesthetized rat (α2-adrenoceptor antagonism); format: in vivo; conditions: iv, dose producing 50 per cent reversal of detomidine-induced mydriasis
Result Type: ED50 (mg/kg)
Dear colleague, please return just the value in mg/kg, with no unit written.

As a guide, the following entries are already answered.
{"Compound": "COCC1(c2cn(C)cn2)Cc2ccccc2C1 [compound 7]", "ED50 (mg/kg)": 0.3}
{"Compound": "OCC1(c2c[nH]cn2)Cc2ccccc2C1 [compound 6]", "ED50 (mg/kg)": 0.2}
{"Compound": "CCCn1cnc(C2(CC)Cc3ccccc3C2)c1 [compound 3]", "ED50 (mg/kg)": 0.3}
{"Compound": "CCn1cnc(C2(CC)Cc3ccccc3C2=O)c1 (stereo not drawn) [compound 12]", "ED50 (mg/kg)": 0.2}

IN: Give the reported value of ED50 for this record: CCC1(c2cn(C)cn2)Cc2ccccc2C1=O (stereo not drawn) [compound 5]
OUT: 0.1

IN: Name the recorded ED50 of the item CCn1cnc(C2(COC)Cc3ccccc3C2)c1 [compound 11] in your answer.
OUT: 0.1
